System: Nycobacterium smegmatis ATCC 607
MEASURED ATTRIBUTE: MIC

Example entries and their recorded answers appear below.
O=C1NN(c2ccccc2)C(=O)C1=Cc1cc(-c2ccccc2)c(O)c(-c2ccccc2)c1 [Compound 19] : ≤ 6 mg/L
N#CC(=Cc1cc(-c2ccccc2)c(O)c(-c2ccccc2)c1)C(N)=O [Compound 15] : ≤ 15 mg/L

Shift focus to the following entry.
Q: Return MIC (reported value) for this molecule: CC(C)c1cc(C=C2SC(Nc3ccccc3)=NC2=O)cc(C(C)C)c1O [Compound 32]
A: ≤ 6 mg/L
